// data source = patent US11795162B2

target: ERR gamma protein (Homo sapiens, UniProt P62508); experiment: Protein thermal shift assay; type: binding; details: compound at 20 μM; ERR gamma protein 0.1 mg/mL, SYPRO-Orange; read-out: T.S. (thermal shift) range
Assay metric: ΔTm at 20 µM

Solved cases below.
>>> reported_measurement("O=C(Nc1cccnc1)c1ccc(-c2cccc(C(F)(F)F)c2)s1 [Compound 108]")
"0 to 2 °C"
>>> reported_measurement("O=C(Nc1ccncc1)c1ccc(-c2ccc3ccccc3c2)s1 [Compound 120]")
"2 to 4 °C"
>>> reported_measurement("N#Cc1cccc(-c2ccc(C(=O)Nc3cccnc3)s2)c1 [Compound 97]")
"0 to 2 °C"
>>> reported_measurement("O=C(Nc1ccncc1)c1ccc(-c2ccccc2F)s1 [Compound 86]")
"0 to 2 °C"

# ---- query compound ----
Value wanted: ΔTm at 20 µM (ERR gamma protein (Homo sapiens, UniProt P62508)) of entry O=C(NCc1ccc(Cl)cc1)c1ccc(-c2cccc(O)c2)o1 [Compound 136] 0 to 2 °C

---

Target: ERR gamma protein (Homo sapiens, UniProt P62508)
Sequence (P62508 1-458): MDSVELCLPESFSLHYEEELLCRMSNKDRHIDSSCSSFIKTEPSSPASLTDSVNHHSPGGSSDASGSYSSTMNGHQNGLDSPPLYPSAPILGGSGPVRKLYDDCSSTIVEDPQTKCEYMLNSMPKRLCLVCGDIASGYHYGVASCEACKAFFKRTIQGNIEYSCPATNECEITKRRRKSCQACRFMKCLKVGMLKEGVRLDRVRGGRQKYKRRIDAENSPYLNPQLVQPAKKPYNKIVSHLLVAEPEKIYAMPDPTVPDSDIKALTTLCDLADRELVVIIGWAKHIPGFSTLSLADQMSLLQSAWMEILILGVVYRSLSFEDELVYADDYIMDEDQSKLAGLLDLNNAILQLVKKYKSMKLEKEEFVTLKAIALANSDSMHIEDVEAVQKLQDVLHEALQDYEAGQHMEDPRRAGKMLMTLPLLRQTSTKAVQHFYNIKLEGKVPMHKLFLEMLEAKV
Test: Protein thermal shift assay
Type: binding
Conditions: compound at 20 μM; ERR gamma protein 0.1 mg/mL, SYPRO-Orange; read-out: T.S. (thermal shift) range
Each entry below carries its reported ΔTm at 20 µM.

Solved cases below.
>>> reported_measurement("O=C(Nc1ccc2ccccc2c1)c1ccc(-c2cccc(O)c2)s1")
"> 4 °C"
>>> reported_measurement("CC(C)c1cccc(-c2ccc(C(=O)Nc3ccc(Cl)cc3)s2)c1")
"0 to 2 °C"
>>> reported_measurement("O=C(Nc1ccc(O)cc1)c1cc(-c2cccc(O)c2)[nH]n1")
"0 to 2 °C"
>>> reported_measurement("O=C(Nc1ccc2ncsc2c1)c1ccc(-c2ccc(O)cc2)o1")
"2 to 4 °C"
>>> reported_measurement("Cc1ccc(NC(=O)c2cc(-c3ccc(O)cc3)[nH]n2)cc1")
"2 to 4 °C"
>>> reported_measurement("CC(C)Cc1ccc(-c2ccc(C(=O)Nc3ccc(Cl)cc3)s2)cc1")
"0 to 2 °C"
>>> reported_measurement("N#Cc1ccc(NC(=O)c2ccc(-c3cccc(O)c3)s2)cc1")
"0 to 2 °C"
>>> reported_measurement("O=C(Nc1ccc(O)cc1)c1ncc(-c2ccsc2)s1")
"2 to 4 °C"
>>> reported_measurement("O=C(NC1CCCCC1)c1ccc(-c2ccc(O)cc2)s1")
"2 to 4 °C"
>>> reported_measurement("Cc1ccc(-c2ccc(C(=O)Nc3ccncc3)s2)cc1C")
"0 to 2 °C"

I am curious: what ΔTm at 20 µM value has been reported for CC(C)(C)c1ccc(NC(=O)c2cc(-c3ccc(O)cc3)[nH]n2)cc1 ? 0 to 2 °C

I am curious: what ΔTm at 20 µM value has been reported for O=C(Nc1cccc(C(F)(F)F)c1)c1ccc(-c2ccncc2)s1 ? 0 to 2 °C

I am curious: what ΔTm at 20 µM value has been reported for O=C(Nc1cccc(B(O)O)c1)c1ccc(-c2ccsc2)s1 ? > 4 °C

I am curious: what ΔTm at 20 µM value has been reported for O=C(Nc1cccc(F)c1)c1ccc(-c2ccc(O)c(C(F)(F)F)c2)s1 ? > 4 °C

I am curious: what ΔTm at 20 µM value has been reported for N#Cc1ccc(-c2ccc(C(=O)Nc3ccc(O)cc3)s2)cc1 ? 2 to 4 °C

I am curious: what ΔTm at 20 µM value has been reported for Cc1ccccc1NC(=O)c1ccc(-c2cccc(O)c2)s1 ? 0 to 2 °C

I am curious: what ΔTm at 20 µM value has been reported for O=C(Nc1ccccc1F)c1ccc(-c2ccc(C(=O)C(F)(F)F)cc2)s1 ? 0 to 2 °C

I am curious: what ΔTm at 20 µM value has been reported for O=C(Nc1cccnc1)c1ccc(-c2ccccc2F)s1 ? 0 to 2 °C

I am curious: what ΔTm at 20 µM value has been reported for CC(C)c1cccc(-c2ccc(C(=O)Nc3ccc(O)cc3)s2)c1 ? 0 to 2 °C

I am curious: what ΔTm at 20 µM value has been reported for O=C(O)c1ccc(-c2ccc(C(=O)Nc3ccc(F)cc3)s2)cc1 ? 0 to 2 °C

I am curious: what ΔTm at 20 µM value has been reported for O=C(Nc1ccc(O)cc1)c1ccc(-c2ccc3ccccc3c2)s1 ? 0 to 2 °C

I am curious: what ΔTm at 20 µM value has been reported for O=C(Nc1ccc(Cl)cc1)c1ccc(-c2ccccc2F)s1 ? 2 to 4 °C

I am curious: what ΔTm at 20 µM value has been reported for O=C(Nc1ccc(O)cc1)c1ccc(-c2cccc(C(F)(F)F)c2)s1 ? 2 to 4 °C

I am curious: what ΔTm at 20 µM value has been reported for O=C(Nc1cccc(O)c1)c1cnc(-c2ccsc2)o1 ? 0 to 2 °C

I am curious: what ΔTm at 20 µM value has been reported for N#Cc1cccc(-c2ccc(C(=O)Nc3ccc(Cl)cc3)s2)c1 ? 0 to 2 °C

I am curious: what ΔTm at 20 µM value has been reported for CCOc1ccc(NC(=O)c2ccc(-c3cccc(O)c3)s2)cc1 ? 2 to 4 °C

I am curious: what ΔTm at 20 µM value has been reported for O=C(Nc1ccc(F)cc1)c1nc(-c2cccc(O)c2)cs1 ? 0 to 2 °C

---

Target: ERR gamma protein (Homo sapiens, UniProt P62508)
Test: Protein thermal shift assay
Format: binding
Conditions: compound at 20 μM; ERR gamma protein 0.1 mg/mL, SYPRO-Orange; read-out: T.S. (thermal shift) range
Protocol: Six replicate reactions were set up and run in Applied Biosystems Quantstudio 7 Real-Time PCR system. Data were collected at a ramp rate of 0.05° C./s from 24° C. through 95° C. and analyzed using Protein Thermal Shift Software 1.3.
Each entry below carries its reported ΔTm at 20 µM.

Solved cases below.
>>> reported_measurement("O=C(Nc1cccc(F)c1)c1ccc(-c2ccc(O)cc2)s1 [Compound 7]")
"> 4 °C"
>>> reported_measurement("O=C(Nc1cccc(O)c1)c1ncc(-c2ccsc2)s1 [Compound 147]")
"0 to 2 °C"

I am curious: what ΔTm at 20 µM value has been reported for CC(C)Oc1ccc(-c2ccc(C(=O)Nc3ccncc3)s2)cc1 [Compound 116] ? 0 to 2 °C

I am curious: what ΔTm at 20 µM value has been reported for CC(C)c1ccc(NC(=O)c2cc(-c3ccc(O)cc3)[nH]n2)cc1 [Compound 5] ? 2 to 4 °C

I am curious: what ΔTm at 20 µM value has been reported for O=C(Nc1ccc(F)cc1)c1ncc(-c2ccc(O)cc2)s1 [Compound 144] ? 2 to 4 °C

I am curious: what ΔTm at 20 µM value has been reported for Cc1ccc(-c2ccc(C(=O)Nc3ccc(O)cc3)s2)cc1C [Compound 83] ? 0 to 2 °C

I am curious: what ΔTm at 20 µM value has been reported for Cc1cccc(NC(=O)c2ccc(-c3ccc(O)cc3)s2)c1 [Compound 19] ? 0 to 2 °C

I am curious: what ΔTm at 20 µM value has been reported for Nc1cccc(-c2ccc(C(=O)Nc3ccc4ccccc4c3)s2)c1 [Compound 54] ? 2 to 4 °C

I am curious: what ΔTm at 20 µM value has been reported for Cc1ccc(-c2ccc(C(=O)Nc3cccnc3)s2)cc1C [Compound 81] ? 0 to 2 °C

I am curious: what ΔTm at 20 µM value has been reported for O=C(Nc1ccc(F)cc1)c1ccc(-c2ccc(B(O)O)cc2)s1 [Compound 17] ? 2 to 4 °C

I am curious: what ΔTm at 20 µM value has been reported for O=C(Nc1ccncc1)c1ccc(-c2ccc(F)cc2)s1 [Compound 94] ? 0 to 2 °C

---

Target: ERR gamma protein (Homo sapiens)
Sequence (P62508 1-458): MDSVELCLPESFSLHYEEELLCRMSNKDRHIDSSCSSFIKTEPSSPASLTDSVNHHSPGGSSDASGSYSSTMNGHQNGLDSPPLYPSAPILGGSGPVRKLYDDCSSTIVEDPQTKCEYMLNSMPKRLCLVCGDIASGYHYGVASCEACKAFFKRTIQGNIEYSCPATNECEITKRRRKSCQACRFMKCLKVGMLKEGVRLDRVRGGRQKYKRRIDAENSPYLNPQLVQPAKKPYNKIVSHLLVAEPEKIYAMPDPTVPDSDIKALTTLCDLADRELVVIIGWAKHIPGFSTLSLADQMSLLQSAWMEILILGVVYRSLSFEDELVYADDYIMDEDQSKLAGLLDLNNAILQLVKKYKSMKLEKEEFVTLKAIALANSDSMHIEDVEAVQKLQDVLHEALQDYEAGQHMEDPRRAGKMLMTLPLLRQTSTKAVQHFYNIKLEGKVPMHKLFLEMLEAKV
Assay: Protein thermal shift assay
Type: binding
Conditions: compound at 20 μM; ERR gamma protein 0.1 mg/mL, SYPRO-Orange; read-out: T.S. (thermal shift) range
Assay metric: ΔTm at 20 µM

>>> reported_measurement("O=C(Nc1ccccc1F)c1ccc(-c2cccc(C(=O)C(F)(F)F)c2)s1 [Compound 154]")
"0 to 2 °C"
>>> reported_measurement("CC(C)c1ccc(-c2ccc(COc3ccccc3)s2)cc1 [Compound 4]")
"0 to 2 °C"
>>> reported_measurement("O=C(Nc1cccc(F)c1)c1ccc(-c2cnc(O)nc2)s1 [Compound 58]")
"0 to 2 °C"
>>> reported_measurement("COc1ccc(NC(=O)c2ccc(-c3ccc(O)cc3)s2)cc1 [Compound 29]")
"0 to 2 °C"
>>> reported_measurement("O=C(Nc1cccnc1)c1ccc(-c2ccc3ccccc3c2)s1 [Compound 106]")
"2 to 4 °C"
>>> reported_measurement("CC(C)(C)c1ccc(NC(=O)c2cc(-c3cccc(O)c3)[nH]n2)cc1 [Compound 128]")
"0 to 2 °C"
>>> reported_measurement("N#Cc1ccc(-c2ccc(C(=O)Nc3ccncc3)s2)cc1 [Compound 101]")
"0 to 2 °C"
>>> reported_measurement("O=C(Nc1cccc(B(O)O)c1)c1ccc(-c2ccccc2F)s1 [Compound 44]")
"2 to 4 °C"

I am curious: what ΔTm at 20 µM value has been reported for O=C(Nc1ccncc1)c1ccc(-c2ccc(C(F)(F)F)cc2)s1 [Compound 113] ? 0 to 2 °C

I am curious: what ΔTm at 20 µM value has been reported for O=C(Nc1ccncc1)c1ccc(-c2cccc(F)c2)s1 [Compound 90] ? 2 to 4 °C
